# Tested on: HCT-116
# measurementNotes: Alamar blue fluorescence viability (IC50), HCT-116
# Assay type: cell-based
# measurementParameters: HCT-116, ERα negative, 72 hr; read-out: IC50 72 hr
# Experimental: Cancer Cell Lines: Culturing Conditions and Validation. All cell lines were cultured at 37° C. with 5% CO2. All ERα-positive cell lines were grown in media lacking phenol red. MCF-7 were grown in EMEM with 10% FBS and 1% penicillin-streptomycin (P/S). […] Alamar Blue Fluorescence for Anticancer Activity (IC50). […] After 2-6 hours incubation, each well's fluorescence (λexcit.=555 nm, λemission.=585 nm) was measured using a SpectraMax M3 plate reader (Molecular Devices). […]
Reported IC50 values follow for various compounds
Give just the numeric value; µM need not be written.

Solved entries (count: 2):
compound: O=C1Nc2c(C(F)(F)F)cccc2C1(c1ccc(O)cc1)N1CC(F)(F)C(F)(F)C1 (stereo not drawn) [drawing 36]
testedOn: HCT-116
IC50, µM: 15
//
compound: O=C1Nc2c(C(F)(F)F)cccc2C1(c1ccc(O)cc1)N1CCC(F)(F)C1 (stereo not drawn)
testedOn: HCT-116
IC50, µM: 20

Next compound, please.
For O=C1Nc2c(C(F)(F)F)cccc2C1(c1ccc(O)cc1)N1CCCC(F)(F)C1 (stereo not drawn) , write its IC50.
21

###

# Test system: T47D
# measurementNotes: Alamar blue fluorescence viability (IC50), T47D
# Format: cell-based
# measurementParameters: Homo sapiens, 24 h, read-out: IC50 24 hr (μM)
quantityMeasured: IC50 (µM)
# number only, unit µM dropped from output

compound: O=C1Nc2c(C(F)(F)F)cccc2[C@@]1(c1ccc(O)cc1)c1ccc(OC(F)(F)F)cc1 [ErSO, reference compound]
IC50 / µM: 0.02

Identify measured IC50 corresponding to O=C1Nc2c(C(F)(F)F)cccc2[C@@]1(c1ccc(O)cc1)N1CCC(F)(F)CC1 (single isomer, unassigned) [ErSO-DFP]
0.016

###

# measurementNotes: Simulated gastric fluid (SGF) stability assay
# Format: in vitro ADME
# measurementParameters: simulated gastric fluid with pepsin, pH 1.2; SGF with pepsin; read-out: half-life in SGF
quantityMeasured: half-life at 100 μM

Output half-life at 100 μM of O=C1Nc2c(C(F)(F)F)cccc2[C@@]1(c1ccc(O)cc1)c1ccc(OC(F)(F)F)cc1 [ErSO, reference compound]
> 2 h

###

# System: HT-29
# measurementNotes: Alamar blue fluorescence viability (IC50), HT-29
# Assay type: cell-based
# measurementParameters: Homo sapiens; HT-29, ERα negative, 24 hr; read-out: IC50 24 hr
quantityMeasured: pIC50
Quick note: pIC50 values are minus log10 of concentrations in mol/L.

Give a short answer stating reported pIC50 for O=C1Nc2c(C(F)(F)F)cccc2[C@@]1(c1ccc(O)cc1)c1ccc(OC(F)(F)F)cc1 [ErSO, reference compound] .
6.68

###

# System: HT-29
# measurementNotes: Alamar blue fluorescence viability (IC50), HT-29
# Format: cell-based
# measurementParameters: Homo sapiens, HT-29, 24 h, read-out: IC50 24 hr (μM)
quantityMeasured: IC50 (µM)
Express your answer in µM, writing the number without its unit.

Supply measured IC50 of O=C1Nc2c(C(F)(F)F)cccc2[C@@]1(c1ccc(O)cc1)N1CCC(F)(F)CC1 (single isomer, unassigned) in your reply.
33

###

# measurementNotes: Pharmacokinetic (PK) studies in mice
# Format: in vivo
# measurementParameters: female, CD-1, mouse, plasma, iv, I.V. 20 mg/kg
quantityMeasured: Cmax (ng/mL)
Your answer should be a plain number; it is taken to be in ng/mL.

Supply reported Cmax belonging to this compound: O=C1Nc2c(C(F)(F)F)cccc2[C@@]1(c1ccc(O)cc1)c1ccc(OC(F)(F)F)cc1 [ErSO, reference compound]
7710

###

# System: T47D-ERαD538G (TDG)
# measurementNotes: Alamar blue fluorescence viability (IC50), TDG
# Type: cell-based
# measurementParameters: 24 h, read-out: IC50 24 hr (μM)
quantityMeasured: IC50 (µM)
Express your answer in µM, writing the number without its unit.

Name the recorded IC50 of the item O=C1Nc2c(C(F)(F)F)cccc2[C@@]1(c1ccc(O)cc1)N1CCC(F)(F)CC1 (single isomer, unassigned) in your answer.
0.009

###

# measurementNotes: Pharmacokinetic (PK) studies in mice
# Type: in vivo
# measurementParameters: female, CD-1, mouse, plasma, iv, I.V. 20 mg/kg
quantityMeasured: AUC (ng·h/mL)
Give just the number in ng·h/mL; leave the unit off.

Identify measured AUC corresponding to O=C1Nc2c(C(F)(F)F)cccc2[C@@]1(c1ccc(O)cc1)c1ccc(OC(F)(F)F)cc1 [ErSO, reference compound]
10100

###

# measurementNotes: Pharmacokinetic (PK) studies in mice
# Type: in vivo
# measurementParameters: female, CD-1, mouse, plasma, iv, I.V. 20 mg/kg, read-out: Vss
quantityMeasured: Vd (L/kg)
Quick note: give the figure in L/kg, leave out the unit.

Please give measured Vd of the following entry: O=C1Nc2c(C(F)(F)F)cccc2[C@@]1(c1ccc(O)cc1)c1ccc(OC(F)(F)F)cc1 [ErSO, reference compound]
10.2

###

# Test system: MCF-7 cells
# measurementNotes: Alamar blue fluorescence viability (IC50), MCF-7
# Format: cell-based
# measurementParameters: Homo sapiens, MCF7; MCF-7, 24 and 72 hr; read-out: IC50 values
# Procedure: Cancer Cell Lines: Culturing Conditions and Validation. All cell lines were cultured at 37° C. with 5% CO2. All ERα-positive cell lines were grown in media lacking phenol red. MCF-7 were grown in EMEM with 10% FBS and 1% penicillin-streptomycin (P/S). […] Alamar Blue Fluorescence for Anticancer Activity (IC50). […] After 2-6 hours incubation, each well's fluorescence (λexcit.=555 nm, λemission.=585 nm) was measured using a SpectraMax M3 plate reader (Molecular Devices). […]
pIC50: −log10 of the molar value.
quantityMeasured: pIC50

For MCF-7 cells, give the measured pIC50 of the entry O=C1Nc2c(C(F)(F)F)cccc2[C@@]1(c1ccc(O)cc1)N1CC(F)(F)C(F)(F)C1 [Compound (R)-26]
8.30 to 8.40

###

# measurementNotes: Simulated gastric fluid (SGF) stability assay
# Assay type: in vitro ADME
# measurementParameters: 100 μM in SGF with pepsin, 120 min
// classify: if (% Remaining after 120 min (SD) < 30%) Met else Not met

Known results for compounds:
compound: O=C1Nc2c(C(F)(F)F)cccc2[C@@]1(c1ccc(O)cc1)N1CCCC(F)(F)C1 [(R)-23]
assignedCategory: Met

compound: O=C1Nc2c(C(F)(F)F)cccc2[C@@]1(c1ccc(O)cc1)c1ccc(OC(F)(F)F)cc1 [ErSO, reference compound]
assignedCategory: Not met

compound: O=C1Nc2c(C(F)(F)F)cccc2[C@@]1(c1ccc(O)cc1)N1CCC(F)(F)C1 [(R)-24]
assignedCategory: Met

compound: O=C1Nc2c(C(F)(F)F)cccc2[C@@]1(c1ccc(O)cc1)N1CCC(F)(F)CC1 (single isomer, unassigned)
assignedCategory: Met

As a next step, examine the compound that follows.
Lab log: compare recorded % Remaining after 120 min (SD) with 30%; is it strictly lower for O=C1Nc2c(C(F)(F)F)cccc2[C@@]1(c1ccc(O)cc1)N1CC(F)(F)C(F)(F)C1 [Compound (R)-26] ?
Met

###

# measurementNotes: Pharmacokinetic (PK) studies in mice
# Type: in vivo
# measurementParameters: female, CD-1, mouse, in vivo, iv, I.V. 20 mg/kg
quantityMeasured: AUC (ng·h/mL)
Write the value in ng·h/mL as a bare number.

Give the reported value of AUC for this record: O=C1Nc2c(C(F)(F)F)cccc2[C@@]1(c1ccc(O)cc1)N1CCC(F)(F)CC1 (single isomer, unassigned)
6370

###

# measurementNotes: Pharmacokinetic (PK) studies in mice
# Format: in vivo
# measurementParameters: female, CD-1, mouse, in vivo, iv, I.V. 20 mg/kg
quantityMeasured: MRT
Just the number plus its unit, please.

Annotate the compound O=C1Nc2c(C(F)(F)F)cccc2[C@@]1(c1ccc(O)cc1)N1CCC(F)(F)CC1 (single isomer, unassigned) with its measured MRT.
52.8 min

###

# measurementNotes: Maximum tolerated dose (MTD) in mice
# Format: in vivo
# measurementParameters: female, CD-1, mouse, in vivo, iv
quantityMeasured: MTD (mg/kg)
Number in mg/kg, nothing else.

Please indicate MTD recorded for O=C1Nc2c(C(F)(F)F)cccc2[C@@]1(c1ccc(O)cc1)c1ccc(OC(F)(F)F)cc1 [ErSO, reference compound]
20

###

# Test system: HCT-116
# measurementNotes: Alamar blue fluorescence viability (IC50), HCT-116
# Format: cell-based
# measurementParameters: Homo sapiens, HCT-116, 24 h, read-out: IC50 24 hr (μM)
quantityMeasured: IC50 (µM)
The figure you give is taken to be in µM; do not add the unit.

Please report IC50 for the following molecule: O=C1Nc2c(C(F)(F)F)cccc2[C@@]1(c1ccc(O)cc1)N1CCC(F)(F)CC1 (single isomer, unassigned)
55
